# assayText: NCI Yeast Anticancer Drug Screen. Data for the wt1 strain (AID 149);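 also: 0% = growth of vehicle-treated wt1 cultures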
# assayContext: S. cerevisiae wt1 strain (SPY 50644) growth inhibition; at 1.2 µM; stronger effect = higher value
About 79,000 compounds went through this panel and 15% of them were active in at least one assay; those are over-represented in the sample as a whole.
Recorded growth inhibition values for a group of molecules are listed next.
// units = %; emit number, no label

# input Reported growth inhibition, molecule COC(COC(=O)N1CCN(C=O)CC1)C1=C(N2CC2)C(=O)C(C)=C(N2CC2)C1=O (stereo not given) : ____
# output 10

# input Reported growth inhibition, molecule O=C1c2ccc3ccccc3c2CCC1N1CCCCC1 (stereo not given) : ____
# output 3

# input Reported growth inhibition, molecule Cc1c(N)nc([C@H](CC(N)=O)NC[C@H](N)C(N)=O)nc1C(=O)N[C@H](C(=O)N[C@H](C)[C@@H](O)[C@H](C)C(=O)N[C@H](C(=O)NCCc1nc(-c2nc(C(=O)NCCC[S+](C)C)cs2)cs1)[C@@H](C)O)C(OC1OC(CO)C(O)C(O)C1OC1OC(CO)C(O)C(OC(N)=O)C1O)c1cnc[nH]1 (stereo not given in full) : ____
# output 0

# input Reported growth inhibition, molecule `Cc1cc[n+](C2=C(Nc3cccc(C(F)(F)F)c3)C(=O)c3ccccc3C2=O)cc1` : ____
# output 0

# input Reported growth inhibition, molecule `Oc1cccnc1[Se]` : ____
# output -2

# input Reported growth inhibition, molecule `Nc1nc(-c2ccccc2)c(-c2ccccc2)[se]1` : ____
# output -2

====

# assayText: NCI Yeast Anticancer Drug Screen. Data for the rad50 strain (AID 155);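 also: 0% = growth of vehicle-only cultures of the same strain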
# assayContext: S. cerevisiae rad50 strain growth inhibition; at 5.0 µM (retest, dose inferred, filed as 0.5)
Compounds without any hit were thinned out: in the full panel of roughly 79,000, 15% have a hit. Active and inactive are the calls of the source. Rule as the data show it: active = growth inhibition above about 70%; inactive = the rest.
Hi there, use one of these labels in your reply, thanks! label 1 = active, label 0 = inactive

INSERT INTO assay_data (compound, assignedlabel) VALUES
  ('COc1cc[c]([Sb]([Br])([CH]=C(C)C)([CH]=C(C)C)[CH]=C(C)C)cc1', 'label 0'),
  ('CCCCCCCCCCCCN=C(N)N', 'label 1'),
  ('O=[N+]([O-])c1cc(S(=O)(=O)F)ccc1S', 'label 0');

# input Dear all, I need the recorded test outcome for CCC(=O)OC1CCn2c1nc1c2C(=O)C(C)=C(N2CC2)C1=O (stereo unspecified) , thank you.
# output label 0

# input Dear all, I need the recorded test outcome for `CN1c2cccc[c]2[Sn]([CH3])([CH3])[c]2ccccc21` , thank you.
# output label 1

# input Dear all, I need the recorded test outcome for `[CH3][Sn]([Br])([Br])[CH2]CCCBr` , thank you.
# output label 0

====

# assayText: NCI Yeast Anticancer Drug Screen. Data for the CLN2oe strain (AID 163);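 also: 0% = growth of vehicle-only control cultures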
# assayContext: S. cerevisiae CLN2oe strain, at 100.0 µM
This is part of a sample that, as a whole, favours compounds with a hit. Of some 79,000 tested, about 15% had one in any assay. Calls of active or inactive are those of the source. Rule as the data show it: active = growth inhibition above about 70%; inactive = the rest.
Hi there, use one of these labels in your reply, thanks! active, inactive

INSERT INTO results (compound, assignedlabel) VALUES
  ('CCC1(O)C(=O)OCc2c1cc1n(c2=O)Cc2c-1nc1ccccc1c2OC (centres undefined)', 'inactive'),
  ('BrCC[N+]12CC[N+](CCBr)(CC1)C2', 'active'),
  ('Nc1ccc(Cl)cc1C(=O)c1ccccc1', 'active'),
  ('Nc1nc(N)c(-c2ccc(Cl)c(Cl)c2)c(CP(Cl)(Cl)(Cl)Br)n1', 'inactive'),
  ('CN(C)CCC(C(=O)C(Br)Br)(c1ccccc1)c1ccccc1', 'active');

# input Dear all, I need the recorded test outcome for Nc1nc(N)c2c(Cl)c(CNc3ccc(C(=O)NC(CC(=O)O)C(=O)O)cc3)ccc2n1 (centres undefined) , thank you.
# output inactive

# input Dear all, I need the recorded test outcome for CCCCN(CCCC)CC(C(C)=O)C(c1ccccc1)c1c(O)c2ccccc2oc1=O (centres undefined) , thank you.
# output inactive

# input Dear all, I need the recorded test outcome for CCC(=O)OC1CCn2c1nc1c2C(=O)C(C)=C(N2CC2)C1=O (centres undefined) , thank you.
# output inactive

# input Dear all, I need the recorded test outcome for `c1ccc(N=c2nc(N3CCOCC3)ss2)cc1` , thank you.
# output active

Sourced from PubChem BioAssay (NCI)
